System: TGFBR2
test_conditions: concentration: 1 μM, replicates: in singlicate; n = 1;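 further: KINOMEscan kinase panel screen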
property_name: %Inh (%)
Give just the number in %; leave the unit off.

Below, each entry is followed by its recorded %Inh result.
{"compound": "COc1cccc(NC(=O)NCCNc2ccnc(Nc3ccc(F)cc3)n2)c1", "property_name": "%Inh", "test_result": 0}
{"compound": "CN(C)CCNS(=O)(=O)c1ccc(-c2ccnc3[nH]ccc23)cc1", "property_name": "%Inh", "test_result": 0}
{"compound": "O=C(Nc1n[nH]c2nc(-c3cccc(O)c3)ccc12)C1CC1", "property_name": "%Inh", "test_result": 87}
{"compound": "CS(=O)(=O)c1cccc(CNc2nc(Nc3ccc4c(c3)CCC(=O)N4)ncc2C(F)(F)F)c1", "property_name": "%Inh", "test_result": 0}
{"compound": "Cc1ccc(-c2ccc3occ(-c4ccc(S(C)=O)cc4)c3c2)nn1 (stereo not shown)", "property_name": "%Inh", "test_result": 18}
{"compound": "COc1ccc(NC(=O)c2ccoc2)cc1-c1ccc(C(=O)NCC2CC2)cc1", "property_name": "%Inh", "test_result": 0}

Ask: Value lookup for %Inh; key = CNc1nccc(-c2ccc3c(N)n[nH]c3c2)n1
Result: 9

Ask: Next record, please: Cc1cc(-c2ccnc(Nc3cccc(C#N)c3)n2)cc(C)c1O
Result: 0

----------
# Lookup of reported %Inh keyed by entry
Test system: EPHB2
test_conditions: concentration: 1 μM, replicates: in singlicate; n = 1
Could you kindly put the unit after your number?

Below, each entry is followed by its recorded %Inh result.
{"molecule": "CNc1nccc(-c2ccc3c(N)n[nH]c3c2)n1 [GSK2206003]", "assayed_target": "EPHB2", "property_name": "%Inh", "test_result": "0%"}
{"molecule": "CC(C)(C)c1ccc(C(=O)Nc2cn3cc(-n4ccnc4)ccc3n2)cc1", "assayed_target": "EPHB2", "property_name": "%Inh", "test_result": "8%"}
{"molecule": "Nc1ncnc2scc(-c3ccc(NC(=O)Cc4cc(F)ccc4F)cc3)c12.O=C(O)C(F)(F)F [SB-731254-M]", "assayed_target": "EPHB2", "property_name": "%Inh", "test_result": "15%"}
{"molecule": "Cc1ccc(C)c(NC(=O)Nc2ccc(C)c(-c3ccc(C(=O)Nc4ccncc4)cc3)c2)c1 [GSK1398473]", "assayed_target": "EPHB2", "property_name": "%Inh", "test_result": "32%"}
{"molecule": "CCNC(=O)/C=C/c1n[nH]c2cc(Sc3ccccc3C(=O)NC)ccc12", "assayed_target": "EPHB2", "property_name": "%Inh", "test_result": "1%"}
{"molecule": "CCOc1nccc(-c2c(-c3ccc(F)cc3)ncn2C2CCNCC2)n1 [SB-249175]", "assayed_target": "EPHB2", "property_name": "%Inh", "test_result": "11%"}
{"molecule": "O=C(Nc1n[nH]c2cc(-c3cccs3)ccc12)C1CC1 [SB-731284]", "assayed_target": "EPHB2", "property_name": "%Inh", "test_result": "0%"}
{"molecule": "Cn1cc(-c2ccc3c(c2)CCN3C(=O)Cc2cc(F)cc(C(F)(F)F)c2)c2c(N)ncnc21 [GSK2635225]", "assayed_target": "EPHB2", "property_name": "%Inh", "test_result": "15%"}

Now let's try a different one.
Ask: Value lookup for %Inh; key = O=C(O)C(F)(F)F.O=c1[nH]ccc2nc(N[C@@H]3CCNC3)nc(Nc3ccc4c(c3)S(=O)(=O)CC4)c12 [GSK2181306]
Result: 0%

----------
Test system: PDGFRA
test_conditions: concentration: 1 μM, replicates: in singlicate; n = 1
property_name: %Inh
Could you kindly put the unit after your number?

{"compound": "Cc1nn2c(=O)cc(N3CCO[C@H](C)C3)nc2n1Cc1cccc(Cl)c1Cl [GSK2373693]", "%Inh": "1%"}
{"compound": "COC(=O)Nc1nc2ccc(Oc3ccc(CC(=O)Nc4cc(C(F)(F)F)ccc4F)cc3)cc2[nH]1 [GW680903]", "%Inh": "98.5%"}
{"compound": "c1ccc(Oc2ccc(Nc3ccnc4cc(-c5ccc(CN6CCCCC6)o5)ccc34)cc2)nc1 [GW567143]", "%Inh": "82%"}
{"compound": "O=C(Nc1n[nH]c2cc(-c3cccs3)ccc12)C1CC1 [SB-731284]", "%Inh": "73%"}
{"compound": "COc1cccc2c(-c3ccncc3)c(-c3ccc(F)cc3)nn12 [GW468513]", "%Inh": "0%"}

Now let's try a different one.
Ask: Value lookup for %Inh; key = Cc1ccc(NC(=O)c2ccnc(N3CCCCC3)c2)cc1-c1ccc(C(=O)NCC2CC2)cc1 [GW775610]
Result: 59%

----------
System: PIK3CA
test_conditions: concentration: 1 μM, replicates: in singlicate; n = 1
# Lookup of reported %Inh keyed by entry

Below, each entry is followed by its recorded %Inh result.
{"compound": "COC(=O)Nc1nc2ccc(Oc3ccc(NC(=O)Nc4cc(C(F)(F)F)ccc4F)cc3)cc2[nH]1.Cl", "%Inh": "0%"}
{"compound": "Cc1ccc(C)c(NC(=O)Nc2ccc(C)c(-c3ccc(C(=O)Nc4ccncc4)cc3)c2)c1", "%Inh": "0%"}
{"compound": "CN(C)c1ncnc2nc[nH]c12", "%Inh": "13%"}
{"compound": "COc1ccc(C2=C(Nc3cccc(O)c3)C(=O)NC2=O)cc1", "%Inh": "0%"}

Ask: Value lookup for %Inh; key = O=C(Nc1n[nH]c2cc(-c3cccs3)ccc12)C1CC1
Result: 3%

Ask: Next record, please: Cc1ccc(Nc2ccnc(Nc3ccc(C)c(F)c3)n2)cc1O.Cl
Result: 0%

----------
Test system: TRKA
Construct: gene NTRK1
test_conditions: concentration: 1 μM, replicates: in singlicate; n = 1
property_name: %Inh (%)
Give just the number in %; leave the unit off.

{"compound": "CCOc1nccc(-c2c(-c3ccc(F)cc3)ncn2C2CCNCC2)n1 [SB-249175]", "%Inh (%)": 47}
{"compound": "Nc1cccc(-c2ccc3c(N)n[nH]c3c2)c1 [GSK2193613]", "%Inh (%)": 35}

Now let's try a different one.
Ask: Value lookup for %Inh; key = O=C(Nc1n[nH]c2nc(-c3cccc(O)c3)ccc12)C1CC1 [SB-711805]
Result: 4

----------
Tested on: BRAF
test_conditions: concentration: 1 μM, replicates: in singlicate; n = 1
Rule: %Inh below 2% gives Condition met. Equal to or above 2% gives Condition not met.

Recorded results for 5 compounds are shown here.
{"compound": "Nc1ncnc2scc(-c3ccc(NC(=O)Cc4cc(F)ccc4F)cc3)c12.O=C(O)C(F)(F)F", "class": "Condition not met"}
{"compound": "Cc1ccc(O)cc1Nc1ccnc2ccc(C(C)(C)C)cc12", "class": "Condition not met"}
{"compound": "CN(C)CCNS(=O)(=O)c1ccc(-c2ccnc3[nH]ccc23)cc1", "class": "Condition met"}
{"compound": "Cl.Cl.NCC(NC(=O)c1cc(-c2cccnc2)c(-c2ccnc3[nH]ccc23)s1)c1ccccc1 (centres unmarked)", "class": "Condition not met"}
{"compound": "CN(c1ccc(NC(=O)Nc2cccc(Cl)c2)cc1)c1ccnc(N)n1.Cl", "class": "Condition met"}

Ask: Regarding Cl.O=C(Nc1ccc(Oc2ccc3[nH]c(NC(=O)c4ccco4)nc3c2)cc1)Nc1cc(C(F)(F)F)ccc1F , kindly confirm whether its %Inh is beneath 2%.
Result: Condition not met

Ask: Next record, please: CC(=O)Nc1cn2nc(Oc3cccc(NC(=O)c4cccc(C(F)(F)F)c4)c3)ccc2n1
Result: Condition not met

Ask: Next record, please: COc1ccc(C)c(Nc2ccnc(Nc3ccc(-c4cnc[nH]4)cc3)n2)c1.Cl
Result: Condition met

Ask: Next record, please: Nc1cccc(-c2ccc3c(N)n[nH]c3c2)c1
Result: Condition met

Ask: Next record, please: CN(C)CCOc1ccc(-c2cc(-c3ccc(Cl)c(O)c3)c(-c3ccncc3)[nH]2)cc1.Cl.Cl
Result: Condition not met

Ask: Next record, please: Cc1ccccc1CC(=O)N1CCc2cc(-c3cn(C)c4ncnc(N)c34)ccc21
Result: Condition met

----------
Tested on: FGFR3
test_conditions: concentration: 1 μM, replicates: in singlicate; n = 1
Rule: %Inh below 8% gives Met. Equal to or above 8% gives Not met.

Recorded results for 6 molecules are shown here.
{"molecule": "Fc1cc(Cl)ccc1Nc1ccnc2cc(-c3ccc(CN4CCOCC4)o3)ccc12 [GW560109]", "class": "Not met"}
{"molecule": "CN1CCN(Cc2ccc(NC(=O)Nc3ccc(N(C)c4ccnc(Nc5ccc(CS(C)(=O)=O)cc5)n4)cc3)cc2)CC1.Cl [GW827654]", "class": "Not met"}
{"molecule": "COc1cc(Nc2nccc(N3CCC(NS(=O)(=O)c4ccc(NC(C)=O)cc4)CC3)n2)cc(OC)c1OC [GSK1379825]", "class": "Not met"}
{"molecule": "O=C(Nc1n[nH]c2cc(-c3cccs3)ccc12)C1CC1 [SB-731284]", "class": "Met"}
{"molecule": "Cc1ccc(NC(=O)c2ccc(Cl)c(Cl)c2)cc1-c1ccc(C(=O)Nc2ccncc2)cc1 [GSK1398460]", "class": "Not met"}
{"molecule": "CSc1ccc(NC2=C(c3ccc(Cl)cc3)C(=O)NC2=O)cc1 [SB-317658]", "class": "Met"}

Kindly consider the entry below.
Ask: Regarding COc1ccc(NC(=O)c2ccoc2)cc1-c1ccc(C(=O)NCC2CC2)cc1 [GW810437] , kindly confirm whether its %Inh is beneath 8%.
Result: Met
